melting point listing for selected compounds.

In [3]: df
Out[3]:
                                   compound         result
0  CS(=O)(=O)O.Cc1ccnc2c1C(=NNC(=N)N)CC(c1cc(Cl)sc1Cl)C2 (single isomer, unassigned; (-)) [Compound 113]  229 to 231 °C
1  CCCn1ccc2c1CC(c1ccccc1)CC2=NNC(=N)N.Cl (stereo not shown)  155 °C (dec.)
2  Cc1ccnc2c1C(=NNC(=N)N)CC(c1ccccc1Cl)C2.Cl (stereo not shown)  204 °C (dec.)

-- ask // lookup melting point for Cc1ccnc2c1C(=NNC(=N)N)CC(c1ccsc1)C2.Cl (stereo not shown)
-- reply ≥ 300 °C

-- ask Give its melting point value. Item: COCc1n[nH]c2c1C(=NNC(=N)N)CC(c1ccccc1Cl)C2.Cl (stereo not shown)
-- reply 210 to 212 °C

-- ask Can you share its melting point? I mean this compound: Cc1ccnc2c1C(=NNC(=N)N)CC(c1c(Cl)cccc1Cl)C2.Cl (stereo not shown)
-- reply ≥ 300 °C

-- ask Which melting point is reported for this compound? Cl.N=C(N)NN=C1CC(c2ccccc2)Cc2c1ccn2Cc1ccccc1 (stereo not shown)
-- reply 142 °C (dec.)

-- ask Requested read-out: melting point. Entry: Cc1cnnc2c1C(=NNC(=N)NO)CC(c1cc(Cl)sc1Cl)C2.Cl (stereo not shown)
-- reply 176 to 178 °C

-- ask Value lookup for melting point; key = Cc1cnnc2c1C(=NNC(=N)N)CC(c1ccsc1)C2.Cl (stereo not shown)
-- reply 278 to 280 °C (dec.)

-- ask Param item = Cc1ccnc2c1C(=NNC(=N)N)CC(c1ccccc1Br)C2.Cl (stereo not shown) ; retrieve measured melting point.
-- reply 233 °C (dec.)

Sourced from patent US6350749B1
